Parameter: hERG current change (%, negative = inhibition) at 1uM. Scope: all listed entries.
Biological target: human ether-à-go-go-related gene (hERG) potassium channel (human)
Sequence (Q12809 whole entry, looked up): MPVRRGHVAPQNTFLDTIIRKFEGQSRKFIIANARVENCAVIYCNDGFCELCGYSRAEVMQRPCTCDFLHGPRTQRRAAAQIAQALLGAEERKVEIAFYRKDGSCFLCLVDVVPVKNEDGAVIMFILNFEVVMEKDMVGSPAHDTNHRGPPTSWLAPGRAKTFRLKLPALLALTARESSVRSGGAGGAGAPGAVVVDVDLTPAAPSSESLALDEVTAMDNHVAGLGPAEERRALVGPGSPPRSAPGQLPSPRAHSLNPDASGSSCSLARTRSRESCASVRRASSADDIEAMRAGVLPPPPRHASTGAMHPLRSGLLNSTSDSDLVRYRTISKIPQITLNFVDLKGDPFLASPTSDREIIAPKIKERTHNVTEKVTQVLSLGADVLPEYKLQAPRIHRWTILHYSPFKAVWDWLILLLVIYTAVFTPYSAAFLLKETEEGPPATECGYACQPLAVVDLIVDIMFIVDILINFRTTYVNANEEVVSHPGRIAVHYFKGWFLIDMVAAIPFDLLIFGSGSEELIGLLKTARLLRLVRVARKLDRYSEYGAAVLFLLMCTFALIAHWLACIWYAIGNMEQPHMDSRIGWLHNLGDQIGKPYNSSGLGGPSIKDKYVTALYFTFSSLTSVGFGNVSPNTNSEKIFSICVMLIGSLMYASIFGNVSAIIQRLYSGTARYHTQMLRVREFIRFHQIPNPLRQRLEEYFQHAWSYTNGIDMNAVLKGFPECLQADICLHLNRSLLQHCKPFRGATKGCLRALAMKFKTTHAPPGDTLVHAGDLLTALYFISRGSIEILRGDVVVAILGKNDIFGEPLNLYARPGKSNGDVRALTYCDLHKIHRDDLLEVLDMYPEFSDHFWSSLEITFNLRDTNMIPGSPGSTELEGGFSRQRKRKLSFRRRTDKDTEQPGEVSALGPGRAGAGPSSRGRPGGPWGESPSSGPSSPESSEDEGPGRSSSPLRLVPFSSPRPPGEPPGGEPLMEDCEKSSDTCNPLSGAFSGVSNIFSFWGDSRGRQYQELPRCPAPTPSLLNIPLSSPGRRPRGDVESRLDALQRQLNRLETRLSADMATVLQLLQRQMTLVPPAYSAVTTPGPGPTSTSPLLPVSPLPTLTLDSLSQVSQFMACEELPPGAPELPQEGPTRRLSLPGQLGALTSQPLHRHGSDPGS
Assay: primary screen, population patch clamp on CHO cells stably expressing hERG; higher = less effect of the substance
The campaign covered roughly 310,000 compounds. About 2,200 (0.71%) showed an effect of 50% or more. The effect is printed as a negative number. The sample holds strong results, similar compounds and a random draw of the others, so the mix is not that of the screen.
Write the number in % without appending the unit.

input: # lookup: hERG current change (%, negative = inhibition) at 1uM of N#Cc1ccc(C2=CC(=O)C[C@H](c3ccc(F)cc3)C2)cc1
output: -61.4

input: Request: Cc1ccc(C2=CC(=O)C[C@H](c3ccc(Cl)cc3)C2)cc1
output: 10.4

---
input: # lookup: hERG current change (%, negative = inhibition) at 1uM of COc1ccc(OCC(=O)N2CCN(C(=O)COc3ccccc3)CC2)cc1
output: -24.7
